Record: Ki reported on rat 5-HT7a receptor (Rattus norvegicus).
Sequence (P32305 whole entry): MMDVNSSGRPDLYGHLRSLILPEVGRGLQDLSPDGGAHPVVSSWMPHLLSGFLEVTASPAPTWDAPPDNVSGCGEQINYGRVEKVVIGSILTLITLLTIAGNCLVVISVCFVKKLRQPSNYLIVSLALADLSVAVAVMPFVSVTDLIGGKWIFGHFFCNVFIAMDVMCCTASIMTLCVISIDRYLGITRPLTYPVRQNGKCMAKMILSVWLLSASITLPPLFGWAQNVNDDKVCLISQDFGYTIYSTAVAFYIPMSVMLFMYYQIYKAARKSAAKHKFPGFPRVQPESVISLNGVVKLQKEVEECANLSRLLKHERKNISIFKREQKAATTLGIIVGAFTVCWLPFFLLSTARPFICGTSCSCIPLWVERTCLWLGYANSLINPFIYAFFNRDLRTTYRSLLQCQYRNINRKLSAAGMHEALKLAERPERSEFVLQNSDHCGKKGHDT
Where a name gives a salt, the structure may show the parent alone.
REPORTED_ENDPOINT: Ki (µM)

[[record]]
molecule = "CCN(CC)c1nc2c(c(-c3ccc(OC)cc3)n1)CNCCC2"
system_tested = "rat 5-HT7a receptor (Rattus norvegicus)"
prefix_operator = ">"
readout_value = 10

[[record]]
molecule = "CC1CCCCN1c1nc2c(c(-c3ccc(F)cc3)n1)CCCNC2 (stereo not drawn)"
system_tested = "rat 5-HT7a receptor (Rattus norvegicus)"
prefix_operator = ">"
readout_value = 10

[[record]]
molecule = "CCN(C)c1nc2c(c(-c3ccc(F)cc3)n1)CNCC2 [Example 44, hydrochloride]"
system_tested = "rat 5-HT7a receptor (Rattus norvegicus)"
prefix_operator = "="
readout_value = 2

[[record]]
molecule = "CCN(CC)c1nc2c(c(-c3ccc(F)cc3)n1)CCNCC2 [Example 9, hydrochloride]"
system_tested = "rat 5-HT7a receptor (Rattus norvegicus)"
prefix_operator = "="
readout_value = 0.029

[[record]]
molecule = "CCN(CC)c1nc2c(c(-c3ccc(F)cc3)n1)CCCNC2"
system_tested = "rat 5-HT7a receptor (Rattus norvegicus)"
prefix_operator = "="
readout_value = 0.47

[[record]]
molecule = "COc1ccc(-c2nc(N3CCCCC3)nc3c2CNCCC3)cc1 [Example 21, hydrochloride]"
system_tested = "rat 5-HT7a receptor (Rattus norvegicus)"
prefix_operator = ">"
readout_value = 10

[[record]]
molecule = "N#Cc1ccc(-c2nc(N3CCCCCC3)nc3c2CCN(Cc2ccccc2)C3)cc1"
system_tested = "rat 5-HT7a receptor (Rattus norvegicus)"
prefix_operator = ">"
readout_value = 10

[[record]]
molecule = "CCN(CC)c1nc2c(c(-c3ccc(F)cc3)n1)CCNC2"
system_tested = "rat 5-HT7a receptor (Rattus norvegicus)"
prefix_operator = "="
readout_value = 0.05

[[record]]
molecule = "COc1ccc(-c2nc(N3CCCCC3C)nc3c2CCCNC3)cc1 (stereo not drawn) [Example 5, hydrochloride]"
system_tested = "rat 5-HT7a receptor (Rattus norvegicus)"
prefix_operator = ">"
readout_value = 10

